# credit: paper PMC12375108

- assayedSystem: T. marianensis hinT H100N (Tm hinT^HN) (Thermaerobacter marianensis, UniProt E6SKA2, H100N)
- testDetails: isothermal titration calorimetry
parameter: Kd (µM)
Expressed in µM, but write only the number.

The compound listed as Nc1ncnc2c1ncn2[C@@H]1O[C@H](COP(=O)(O)O)[C@@H](O)[C@H]1O has a reported Kd of 3

----------
- assayedSystem: H. sapiens hinT H112N (human hinT^HN) (Homo sapiens, UniProt P49773, H112N)
- Sequence (P49773 whole entry H112N): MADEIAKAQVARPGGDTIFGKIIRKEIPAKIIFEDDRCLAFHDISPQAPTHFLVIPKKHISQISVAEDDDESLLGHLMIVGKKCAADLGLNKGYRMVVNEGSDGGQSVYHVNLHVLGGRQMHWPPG
- testDetails: isothermal titration calorimetry
parameter: pKd
Schema: pKd number; meaning minus log10 of the concentration expressed in molar units.

Simply: Nc1ncnc2c1ncn2[C@@H]1O[C@H](COP(=O)(O)O)[C@@H](O)[C@H]1O [AMP] , H. sapiens hinT H112N (human hinT^HN) (Homo sapiens, UniProt P49773, H112N), pKd = 6.55
